Every entry's value here was drawn from ChEMBL document CHEMBL4689842.

Exercise: for every item that follows, state its recorded Population Membrane Permeable-Phenotype (%).
tested on: Fibroblast; experiment: Multiplex assay against human fibroblast; assay type: toxicity, cell-based; details: 12 h, 1 µM, compound concentration 1 uM, replicate 2
Numbers only, in %.

Example entries and their recorded answers appear below.
{"columns": ["compound", "unit-descriptor", "result-value"],
 "data": [
  ["Cl.Cl.NC1(c2ccc(-c3nc4ccn5c(=O)[nH]nc5c4cc3-c3ccccc3)cc2)CCC1", "%", 19],
  ["CCC(=O)O[C@]1(C(=O)SCF)[C@H](C)C[C@H]2[C@@H]3C[C@H](F)C4=CC(=O)C=C[C@]4(C)[C@@]3(F)[C@@H](O)C[C@@]21C [FLUTICASONE PROPIONATE]", "%", 3]
]}

Below is a list of compounds. For each, state its recorded Population Membrane Permeable-Phenotype (%).
1. CCOc1cc(N2CCC(O)CC2)ccc1Nc1ncc2c(n1)N(C1CCCC1)CCC(=O)N2C
2. COc1cc2c(Nc3ccc(NC(=O)c4ccccc4)cc3)ncnc2cc1OCCCN1CCOCC1
3. Cc1cc2c(cc1N1C(=O)c3cccc4c(CCCO)ccc(c34)C1=O)n(C)c(=O)n2C
4. CCCn1c(=O)c2[nH]c(C34CC5CC(CC3C5)C4)nc2n(CCC)c1=O [ROLOFYLLINE]
5. c1ccc2oc(-c3csc(C4CCN(Cc5nc6ncccc6[nH]5)CC4)n3)cc2c1
6. CC(C)N1CCC(C)(C)c2cc(C#Cc3ccc(C(=O)O)cc3)ccc21

a:
1: 17; 2: 22; 3: 1; 4: 12; 5: 15; 6: 6

====

system: Fibroblast; experiment: Multiplex assay against human fibroblast; format: toxicity, cell-based; conditions: 24 h, 1 µM, compound concentration 1 uM, replicate 2
In plain terms, low Population Normal (%), meaning strictly below 90%, gives 1 (yes), and everything else gives 0 (no).

{"columns": ["structure-notation", "category-label"],
 "data": [
  ["CC(C)(C)c1cnc(CSc2cnc(NC(=O)C3CCNCC3)s2)o1", "1 (yes)"]
]}

q: Please check: Population Normal (%) for CC(=O)c1cc(-c2cc(C(=O)NC3CC3)ccc2C)c2ncccn12 , strictly under 90% or not?
a: 0 (no)

q: Query CNC(=O)c1cc(Oc2ccc(NC(=O)Nc3cc(C(C)(C)C)nn3-c3ccc4ncccc4c3)c(F)c2)ccn1 next
a: 1 (yes)

q: Item: Cl.Cl.NC1(c2ccc(-c3nc4ccn5c(=O)[nH]nc5c4cc3-c3ccccc3)cc2)CCC1
a: 1 (yes)

q: Another molecule to look at: CCc1cc2c(cc1CC)CC(NC[C@H](O)c1ccc(O)c3[nH]c(=O)ccc13)C2
a: 0 (no)

q: Could you do the same for N#Cc1cnc(Nc2cc(NC[C@H]3CNCCO3)c(C(F)(F)F)cn2)cn1 , please?
a: 1 (yes)

====

Give measured Population Mitotic Cells (%) for each item. Keep answers brief.
system: U2OS; test: Multiplex assay against U2OS; assay type: toxicity, cell-based; details: human, 48 h, 10 µM, compound concentration 10 uM, replicate 1
Numbers only, in %.

{"columns": ["compound", "unit-descriptor", "Population Mitotic Cells (%)"],
 "data": [
  ["CC(C)Oc1ccc(C(=O)N[C@H](CNC(=O)CN(C)C)Cc2ccc(-c3cn4cccc([C@H](C)O)c4n3)cc2)cc1Cl [GSK-923295A]", "%", 33],
  ["COc1cc2c(NC3CCN(C(C)C)CC3)nc(N3CCC(F)(F)CC3)nc2cc1OCCCN1CCCC1", "%", 20],
  ["Cc1cc2c(cc1N1C(=O)c3cccc4c(CCCO)ccc(c34)C1=O)n(C)c(=O)n2C", "%", 20]
]}

Count: 3. Required value per item: Population Mitotic Cells (%).
1. CCC(=O)O[C@]1(C(=O)SCF)[C@H](C)C[C@H]2[C@@H]3C[C@H](F)C4=CC(=O)C=C[C@]4(C)[C@@]3(F)[C@@H](O)C[C@@]21C [FLUTICASONE PROPIONATE]
2. O=C(O)c1ccc2cc(-c3ccc(O)c(C45CC6CC(CC(C6)C4)C5)c3)ccc2c1
3. CCCn1c(=O)c2[nH]c(C34CC5CC(CC3C5)C4)nc2n(CCC)c1=O

a:
1. 27
2. 27
3. 30

====

system: Fibroblast; assay: Incucyte cell viability with human fibroblast; type: toxicity, cell-based; settings: 18 h, 10 µM, compound concentration 10 uM, replicate number 1, timepoint 18 hours; also: filed as whole numbers so only -1 and 0 and 1 occur
test-readout: Growth Rate
Give bare numbers.

{"columns": ["compound", "result-value"],
 "data": [
  ["C[C@@H]1CN(c2cc(-c3nn(C)c4ccc(OC5(C)CC5)cc34)ncn2)C[C@H](C)O1", 0],
  ["CC(C)CC(=O)N1CCc2nc(-c3ccc(Br)cc3)nc(N(C)Cc3ccccc3)c2C1", 1],
  ["Cc1cc(C)c(N)c(C#Cc2cccc(F)c2)n1.Cl", 0],
  ["Nc1nc2c(c(N3CCNCC3)n1)CCC1=C2[C@@H]2CCCC[C@@H]2O1", 0]
]}

Return reported Growth Rate values for all items listed beneath this line.
1. C[C@@H]1CCc2ncc(F)cc2[C@H]2CCCN2c2ccn3ncc(c3n2)C(=O)N1
2. CC(=O)c1cc(-c2cc(C(=O)NC3CC3)ccc2C)c2ncccn12
3. O=C(O)CC1CCC2(CC1)CCN(c1cc(OC(F)(F)F)ccc1Cl)CC2
4. C[C@H](c1ccnc(Nc2nc3ccc(-c4cc(N(C)C)ncn4)cc3[nH]2)c1)N1CCN(C(=O)CC(F)(F)F)CC1
5. CC(=O)[C@@]1(O)CC[C@H]2[C@@H]3C[C@H](C)C4=CC(=O)CC[C@]4(C)[C@H]3CC[C@@]21C
6. COc1ccc(NS(=O)(=O)c2sc3ccc(Cl)cc3c2C)cc1N1CCNCC1.Cl
7. Cc1nc(C#Cc2ccnc(Cl)c2)c(C)n1-c1ccc(OC(F)(F)F)cc1
8. CCNC(=O)c1cc2c(N3CCOC[C@@H]3C)ccnc2[nH]1

a:
1. 1
2. 0
3. 1
4. 1
5. 1
6. 0
7. 1
8. 1

For every listed record, write down its Growth Rate.
1. CCC1(C2=NCCN2)Cc2ccccc2O1 (stereo not drawn)
2. CCOc1cc(N2CCC(O)CC2)ccc1Nc1ncc2c(n1)N(C1CCCC1)CCC(=O)N2C

a:
0
0

Below are some compounds; for each one, tell me its Growth Rate.
1. O=C(O)COc1cccc(CN(Cc2ccc(-n3cccn3)cc2)S(=O)(=O)c2cccnc2)c1
2. CN(C)C(=O)c1ccc(-c2cc(C(=O)N(C)C3CCCC3)no2)cc1O
3. Cc1cccc(NC(=O)N[C@@H]2N=C(c3ccccc3)c3ccccc3N(C)C2=O)c1
4. CCC(=O)O[C@]1(C(=O)SCF)[C@H](C)C[C@H]2[C@@H]3C[C@H](F)C4=CC(=O)C=C[C@]4(C)[C@@]3(F)[C@@H](O)C[C@@]21C [FLUTICASONE PROPIONATE]

a:
[1, 1, 0, 1]

====

system: U2OS; experiment: Multiplex assay against U2OS; assay type: toxicity, cell-based; settings: human, 24 h, 10 µM, compound concentration 10 uM, replicate 1
Provide the reported Population Mitotic Cells (%) of each item.
One number for each entry, in %.

Here's what some known entries look like.
{"columns": ["compound", "target-entity", "test-readout", "unit-descriptor", "result-value"],
 "data": [
  ["CN(C)CCOc1ccc(-c2nc(-c3ccncc3)c(-c3ccc4c(c3)CC/C4=N\\O)[nH]2)cc1", "U2OS", "Population Mitotic Cells (%)", "%", 55],
  ["CCc1cc2c(cc1CC)CC(NC[C@H](O)c1ccc(O)c3[nH]c(=O)ccc13)C2", "U2OS", "Population Mitotic Cells (%)", "%", 21],
  ["CN(C)C/C=C/C(=O)Nc1cc2c(Nc3ccc(F)c(Cl)c3)ncnc2cc1O[C@H]1CCOC1.O=C(O)/C=C\\C(=O)O.O=C(O)/C=C\\C(=O)O [AFATINIB DIMALEATE]", "U2OS", "Population Mitotic Cells (%)", "%", 18],
  ["COc1cc2c(NC3CCN(C(C)C)CC3)nc(N3CCC(F)(F)CC3)nc2cc1OCCCN1CCCC1", "U2OS", "Population Mitotic Cells (%)", "%", 30]
]}

Please look at the following compound next.
q: Looking for the measured Population Mitotic Cells (%) of CNc1oc(-c2cccc3ccccc23)nc1C#N , can you help?
a: 13

====

tested on: HEK-293T; test: Multiplex assay against HEK293T; format: toxicity, cell-based; conditions: human, 48 h, 10 µM, compound concentration 10 uM, replicate 2
test-readout: Population Mitochondria Different-Phenotype (%)
One number for each entry, in %.

Field: example entries. Status: answers known.
{"columns": ["compound", "result-value"],
 "data": [
  ["COc1cc2c(NC3CCN(C(C)C)CC3)nc(N3CCC(F)(F)CC3)nc2cc1OCCCN1CCCC1", 97],
  ["CCn1c(-c2nonc2N)nc2cnc(Oc3cccc(NC(=O)c4ccc(OCCN5CCOCC5)cc4)c3)cc21 [GSK-269962A]", 89]
]}

Would you mind giving Population Mitochondria Different-Phenotype (%) for every compound in the list below?
1. CNC(=O)c1nn(C)c2c1C(C)(C)Cc1cnc(Nc3ccc(N4CCN(C)CC4)cc3)nc1-2
2. Cc1nc(Cc2cccc(C(F)(F)F)c2)sc1-c1ccc(C(N)=O)nc1 [TP-024n]
3. CCCn1c(=O)c2[nH]c(C34CC5CC(CC3C5)C4)nc2n(CCC)c1=O

a:
[91, 54, 62]
